Format: in vitro ADME
Protocol Conditions: human liver microsomes; further: time not given here
The following compounds are shown together with reported Metabolic Stability H (% Rem.) values.
Numeric answer only, unit % Rem. assumed.

• CN(C)CCNC(=O)c1cccc(-c2ccc3nc(N)n(-c4ccc(C(F)(F)F)cc4)c(=O)c3c2)c1 [compound 13] = 82

Attention now turns to another entry.
Check the records and state Metabolic Stability H (% Rem.) for C[S+]([O-])c1cccc(-c2ccc3nc(N)n(-c4ccc(C#N)cc4)c(=O)c3c2)c1 (stereo not shown) [compound 54] 92

---

The following compounds are shown together with reported Metabolic Stability H (% Rem.) values.
Assay type: in vitro ADME
Protocol Conditions: human liver microsomes
Numeric answer only, unit % Rem. assumed.

- NC(=O)c1cccc(-c2ccc3c(=O)n(-c4ccc(C(F)(F)F)cc4)c(N)nc3c2)c1 [compound 33]: 96
- C[S+]([O-])c1cccc(-c2ccc3nc(N)n(-c4cccc(C(F)(F)F)c4)c(=O)c3c2)c1 (stereo not shown) [compound 34]: 50
- Nc1nc2ccc(-c3cccc(C(=O)N4CCSCC4)c3)cc2c(=O)n1-c1ccc(C(F)(F)F)cc1 [compound 18]: 8

Attention now turns to another entry.
Check the records and state Metabolic Stability H (% Rem.) for COc1ccc(-n2c(N)nc3ccc(-c4cccc([S+](C)[O-])c4)cc3c2=O)cc1 (stereo not shown) [compound 53] 100
